Species: Rattus norvegicus
Assay Protocol: Open TG-GATES - Regimen: Daily Repeat
Type: toxicity, organism-based, Sprague-Dawley
Set-up: regimen Daily Repeat, gender Male, age 6 weeks
Condition Set: in vivo, po, 0 mg/kg, […], tissue Plasma, route gavage, dose level Control, time 14 day
I'd be grateful if you could share measured TP for these entries.
Use g/dL as the unit, but write only the number.

Input: Request the reported TP associated with CNC(=C[N+](=O)[O-])NCCSCc1ccc(CN(C)C)o1 [RANITIDINE]
Output: 6

Input: And then CN(C)CCC(c1ccc(Cl)cc1)c1ccccn1 (stereo unspecified) [CHLORPHENIRAMINE] , what is it?
Output: 6.1

Input: And then CCCc1cc(=O)[nH]c(=S)[nH]1 [PROPYLTHIOURACIL] , what is it?
Output: 6.1

Input: And then Brc1ccccc1 [BROMOBENZENE] , what is it?
Output: 5.9

Input: And then Nc1c2c(nc3ccccc13)CCCC2 [TACRINE] , what is it?
Output: 6

Input: And then COC(=O)C1=C(C)NC(C)=C(C(=O)OC)C1c1ccccc1[N+](=O)[O-] [NIFEDIPINE] , what is it?
Output: 6

###

I'd be grateful if you could share measured Cl for these entries.
Species on record: Rattus norvegicus
Assay Protocol: Open TG-GATES - Regimen: Daily Repeat
Format: toxicity, organism-based, Sprague-Dawley
Parameters: regimen Daily Repeat, gender Male, age 6 weeks
Condition Set: in vivo, po, 300 mg/kg, […], tissue Plasma, route gavage, dose level Middle, time 28 day
Use meq/L as the unit, but write only the number.

Input: Request the reported Cl associated with CNC(=C[N+](=O)[O-])NCCSCc1ccc(CN(C)C)o1 [RANITIDINE]
Output: 102.8

Input: And then O=C(OC[C@H]1O[C@@H](OC(=O)c2cc(O)c(O)c(OC(=O)c3cc(O)c(O)c(O)c3)c2)[C@H](OC(=O)c2cc(O)c(O)c(OC(=O)c3cc(O)c(O)c(O)c3)c2)[C@@H](OC(=O)c2cc(O)c(O)c(OC(=O)c3cc(O)c(O)c(O)c3)c2)[C@@H]1OC(=O)c1cc(O)c(O)c(OC(=O)c2cc(O)c(O)c(O)c2)c1)c1cc(O)c(O)c(OC(=O)c2cc(O)c(O)c(O)c2)c1 [TANNIC ACID] , what is it?
Output: 105.8

Input: And then COC(=O)C1=C(C)NC(C)=C(C(=O)OC)C1c1ccccc1[N+](=O)[O-] [NIFEDIPINE] , what is it?
Output: 106.6

Input: And then CN/C(=N/CCSCc1nc[nH]c1C)NC#N [CIMETIDINE] , what is it?
Output: 101.8

Input: And then Cc1nnc2n1-c1ccc(Cl)cc1C(c1ccccc1Cl)=NC2 [TRIAZOLAM] , what is it?
Output: 105

Input: And then CCOc1ccc(NC(C)=O)cc1 [PHENACETIN] , what is it?
Output: 105.6

###

Species: Rattus norvegicus
Assay Protocol: Open TG-GATES - Regimen: Single
Format: toxicity, organism-based, Sprague-Dawley
Design: regimen Single, gender Male, age 6 weeks
Condition Set: in vivo, po, 300 mg/kg, 3 h, tissue Kidney, route gavage, dose level Middle
Property: KIDNEY_L
Answer format: number, then unit.

Input: Request the reported KIDNEY_L associated with `O=C(OC[C@H]1O[C@@H](OC(=O)c2cc(O)c(O)c(OC(=O)c3cc(O)c(O)c(O)c3)c2)[C@H](OC(=O)c2cc(O)c(O)c(OC(=O)c3cc(O)c(O)c(O)c3)c2)[C@@H](OC(=O)c2cc(O)c(O)c(OC(=O)c3cc(O)c(O)c(O)c3)c2)[C@@H]1OC(=O)c1cc(O)c(O)c(OC(=O)c2cc(O)c(O)c(O)c2)c1)c1cc(O)c(O)c(OC(=O)c2cc(O)c(O)c(O)c2)c1`
Output: 0.9 g

Input: And then `Cc1nnc2n1-c1ccc(Cl)cc1C(c1ccccc1Cl)=NC2` , what is it?
Output: 0.8 g

Input: And then `CNC(=C[N+](=O)[O-])NCCSCc1ccc(CN(C)C)o1` , what is it?
Output: 1 g

Input: And then `COC(=O)C1=C(C)NC(C)=C(C(=O)OC)C1c1ccccc1[N+](=O)[O-]` , what is it?
Output: 0.9 g

Input: And then `CN/C(=N/CCSCc1nc[nH]c1C)NC#N` , what is it?
Output: 1 g

###

I'd be grateful if you could share measured PT for these entries.
Organism: Rattus norvegicus
Assay Protocol: Open TG-GATES - Regimen: Single
Format: toxicity, organism-based, Sprague-Dawley
Parameters: regimen Single, gender Male, age 6 weeks
Condition Set: in vivo, po, 100 mg/kg, 3 h, tissue Blood, route gavage, dose level Low
Use s as the unit, but write only the number.

Input: Request the reported PT associated with `CN/C(=N/CCSCc1nc[nH]c1C)NC#N`
Output: 12.8

Input: And then `Cc1nnc2n1-c1ccc(Cl)cc1C(c1ccccc1Cl)=NC2` , what is it?
Output: 13.5

Input: And then `COC(=O)C1=C(C)NC(C)=C(C(=O)OC)C1c1ccccc1[N+](=O)[O-]` , what is it?
Output: 14.9

Input: And then `CNC(=C[N+](=O)[O-])NCCSCc1ccc(CN(C)C)o1` , what is it?
Output: 12.1

Input: And then `O=C(OC[C@H]1O[C@@H](OC(=O)c2cc(O)c(O)c(OC(=O)c3cc(O)c(O)c(O)c3)c2)[C@H](OC(=O)c2cc(O)c(O)c(OC(=O)c3cc(O)c(O)c(O)c3)c2)[C@@H](OC(=O)c2cc(O)c(O)c(OC(=O)c3cc(O)c(O)c(O)c3)c2)[C@@H]1OC(=O)c1cc(O)c(O)c(OC(=O)c2cc(O)c(O)c(O)c2)c1)c1cc(O)c(O)c(OC(=O)c2cc(O)c(O)c(O)c2)c1` , what is it?
Output: 11.5

###

Species: Rattus norvegicus
Assay Protocol: Open TG-GATES - Regimen: Single
Assay type: toxicity, organism-based, Sprague-Dawley
Set-up: regimen Single, gender Male, age 6 weeks
Condition Set: in vivo, po, 100 mg/kg, 9 h, tissue Plasma, route gavage, dose level Low
Property: GLC (mg/dL)
Use mg/dL as the unit, but write only the number.

Input: Request the reported GLC associated with `COC(=O)C1=C(C)NC(C)=C(C(=O)OC)C1c1ccccc1[N+](=O)[O-]`
Output: 178.6

Input: And then `CN/C(=N/CCSCc1nc[nH]c1C)NC#N` , what is it?
Output: 194.4

Input: And then `CNC(=C[N+](=O)[O-])NCCSCc1ccc(CN(C)C)o1` , what is it?
Output: 194.2

###

Species: Rattus norvegicus
Assay Protocol: Open TG-GATES - Regimen: Daily Repeat
Assay type: toxicity, organism-based, Sprague-Dawley
Design: regimen Daily Repeat, gender Male, age 6 weeks
Condition Set: in vivo, po, 0 mg/kg, 72 h, tissue Plasma, route gavage, dose level Control, time 3 day
Property: PL

Input: Request the reported PL associated with NC1=NC(=O)C(c2ccccc2)O1 (configuration not stated)
Output: 147.6 mg/dL

Input: And then CN(C)CCC(c1ccc(Cl)cc1)c1ccccn1 (configuration not stated) , what is it?
Output: 151.6 mg/dL

Input: And then `CN/C(=N/CCSCc1nc[nH]c1C)NC#N` , what is it?
Output: 158 mg/dL

Input: And then `O=C(OC[C@H]1O[C@@H](OC(=O)c2cc(O)c(O)c(OC(=O)c3cc(O)c(O)c(O)c3)c2)[C@H](OC(=O)c2cc(O)c(O)c(OC(=O)c3cc(O)c(O)c(O)c3)c2)[C@@H](OC(=O)c2cc(O)c(O)c(OC(=O)c3cc(O)c(O)c(O)c3)c2)[C@@H]1OC(=O)c1cc(O)c(O)c(OC(=O)c2cc(O)c(O)c(O)c2)c1)c1cc(O)c(O)c(OC(=O)c2cc(O)c(O)c(O)c2)c1` , what is it?
Output: 146.8 mg/dL

Input: And then `Cc1nnc2n1-c1ccc(Cl)cc1C(c1ccccc1Cl)=NC2` , what is it?
Output: 168.8 mg/dL

Input: And then `CNC(=C[N+](=O)[O-])NCCSCc1ccc(CN(C)C)o1` , what is it?
Output: 169.6 mg/dL

Input: And then `CCCc1cc(=O)[nH]c(=S)[nH]1` , what is it?
Output: 160.8 mg/dL

###

Species: Rattus norvegicus
Assay Protocol: Open TG-GATES - Regimen: Daily Repeat
Assay type: toxicity, organism-based, Sprague-Dawley
Parameters: regimen Daily Repeat, gender Male, age 6 weeks
Condition Set: in vivo, po, 0 mg/kg, 72 h, tissue Plasma, route gavage, dose level Control, time 3 day
I'd be grateful if you could share measured K for these entries.
Use meq/L as the unit, but write only the number.

Input: Request the reported K associated with CCCc1cc(=O)[nH]c(=S)[nH]1 [PROPYLTHIOURACIL]
Output: 5

Input: And then COC(=O)C1=C(C)NC(C)=C(C(=O)OC)C1c1ccccc1[N+](=O)[O-] [NIFEDIPINE] , what is it?
Output: 4.2

Input: And then O=C(OC[C@H]1O[C@@H](OC(=O)c2cc(O)c(O)c(OC(=O)c3cc(O)c(O)c(O)c3)c2)[C@H](OC(=O)c2cc(O)c(O)c(OC(=O)c3cc(O)c(O)c(O)c3)c2)[C@@H](OC(=O)c2cc(O)c(O)c(OC(=O)c3cc(O)c(O)c(O)c3)c2)[C@@H]1OC(=O)c1cc(O)c(O)c(OC(=O)c2cc(O)c(O)c(O)c2)c1)c1cc(O)c(O)c(OC(=O)c2cc(O)c(O)c(O)c2)c1 [TANNIC ACID] , what is it?
Output: 4.8

Input: And then CN1C(=O)CCS(=O)(=O)C1c1ccc(Cl)cc1 (configuration not stated) [CHLORMEZANONE] , what is it?
Output: 4.2

Input: And then Nc1c2c(nc3ccccc13)CCCC2 [TACRINE] , what is it?
Output: 4.4

Input: And then CN/C(=N/CCSCc1nc[nH]c1C)NC#N [CIMETIDINE] , what is it?
Output: 3.7

Input: And then CC(C)NNC(=O)c1ccncc1 [IPRONIAZID] , what is it?
Output: 4.6

// provenance: ChEMBL document CHEMBL3885861
